- Test system: NCI-H522 lung
- Experiment summary: NCI tumour cell line growth inhibition, 48 h
// TGI lookup, one value per entry
Readout: TGI

molecule=COc1c(C(=O)O)oc2c(OC)cccc12 experimental_result="> 100 µM"
molecule="C=C1C(=O)OC2CC1C(O)C/C(C)=C/CC/C(C)=C/C(O)CC2C (configuration not stated)" experimental_result="0.504 µM"
molecule=CN(C)C(N)=NC#N experimental_result="> 100 µM"
molecule="CCOC(=O)C(CO)c1nc2c([nH]c1=O)c(=O)n(C)c(=O)n2C (configuration not stated)" experimental_result="> 100 µM"
molecule=COc1ccccc1NC(=O)n1nc(N)c2ccccc21 experimental_result="> 100 µM"
molecule=CNc1ccc(-c2nc3cc(C)ccc3o2)cc1 experimental_result="> 100 µM"
molecule=O=C(Nc1ccc(F)cc1)c1c(NC(=O)C(F)(F)F)sc2c1CCCCC2 experimental_result="7.41 µM"
molecule="COC(=O)C(C)(N=Cc1ccccc1)c1ccccc1 (configuration not stated)" experimental_result="> 100 µM"
molecule=NC(=O)N/N=C/C(/C=N/NC(N)=O)[N+](=O)[O-] experimental_result="> 100 µM"
molecule=O=C(Nc1nc2ccccc2n1Cc1ccccc1)NC12CC3CC(CC(C3)C1)C2 experimental_result="> 100 µM"
molecule=C=CCOc1ccccc1N=N/C(C#N)=N\Nc1ccccc1OCC=C experimental_result="> 100 µM"
molecule="Cc1ccc(OCC2OC(n3cnc4nc(Cl)nc(Cl)c43)CC2Oc2ccc(C)cc2)cc1 (configuration not stated)" experimental_result="4.31 µM"
molecule=Cn1ccn2c3nc4ccccc4nc3c(=O)c(C#N)c12 experimental_result="> 100 µM"
molecule=CCN(CC)CCCOC(=O)/C=C/c1c(C)[nH]c(=O)[nH]c1=O experimental_result="> 625 µM"
molecule=Cc1ccc(S(=O)(=O)NC(=O)NC23CC4CC(CC(F)(C4)C2)C3)cc1 experimental_result="> 100 µM"
molecule=O=C(CN1CCN(Cc2ccccc2)CC1)N1CCCn2c1nc1ccccc1c2=O experimental_result="> 100 µM"
molecule=Cn1c(=O)nc2n(-c3cccc(F)c3)c3ccccc3nc-2c1=O experimental_result="38.1 µM"
molecule=Cc1ccc(N=Nc2c(O)ccc3cc(S(=O)(=O)O)ccc23)c(C)c1 experimental_result="> 100 µM"
molecule="Cc1ccc(OCC2OC(n3cnc4c(N(C)C)nc(Br)nc43)CC2Oc2ccc(C)cc2)cc1 (configuration not stated)" experimental_result="> 100 µM"
molecule="COC1CC2C=C(C)/C=C/C=C/C(=O)NC(c3ccccc3)C/C=C/CCC(O)CC(=O)C2=C1O (configuration not stated)" experimental_result="0.693 µM"
molecule=CC(=O)[C@@H]1CCC=C2CC[C@]3(C)[C@@H](CC[C@@H]4[C@@]5(C)CCCNC(C)(C)[C@@H]5CC[C@]43C)[C@H]21 experimental_result="3.5 µM"
molecule="COc1cc(/C=C2\\CC3C4CC=C5C[C@@H](OC(C)=O)CC[C@]5(C)C4CC[C@]3(C)C2=O)ccc1OCCCn1ccnc1 (some centres not stated)" experimental_result="> 50 µM"

###

Below are compounds with their GI50 as measured on T-47D breast.
Readout: GI50

smiles_repr=O=C(c1ccc2ncc(-c3nc(NC4CC4)ncc3F)n2c1)N1CCOCC1 readout=GI50 experimental_result="2 µM"
smiles_repr=Cc1nc2sc(C(=O)Nc3cccc4ccccc34)c(N)c2cc1C(=O)c1ccccc1 readout=GI50 experimental_result="3.64 µM"
smiles_repr=CCOC(=O)C(=Cc1ccccc1[N+](=O)[O-])C(=O)OCC readout=GI50 experimental_result="3.68 µM"
smiles_repr=CC(=O)[C@@H]1CCC=C2CC[C@]3(C)[C@@H](CC[C@@H]4[C@@]5(C)CCCNC(C)(C)[C@@H]5CC[C@]43C)[C@H]21 readout=GI50 experimental_result="1.72 µM"
smiles_repr=NC(=O)c1cc(Br)cc(C2CCCCC2)c1O readout=GI50 experimental_result="11.5 µM"
smiles_repr=Cn1ncc2c(N)nc(N3CCCCC3)nc21 readout=GI50 experimental_result="3.75 µM"
smiles_repr=Cn1c(=O)c(Oc2ccccc2F)cc2cnc(NC3CCOCC3)nc21 readout=GI50 experimental_result="> 25 µM"

###

- Tested on: SF-539 CNS
- Experiment summary: NCI tumour cell line growth inhibition, 48 h
// TGI lookup, one value per entry
Readout: TGI (µM)

molecule=Clc1ccc2[nH]cc(-c3nc(-c4c[nH]c5ncccc45)cs3)c2c1 qualifier_operator== experimental_result=21.2
molecule="COC1CC2C=C(C)/C=C/C=C/C(=O)NC(c3ccccc3)C/C=C/CCC(O)CC(=O)C2=C1O (stereo not given)" qualifier_operator== experimental_result=0.912
molecule=NC(=O)c1nnc2cc(F)ccc2c1N qualifier_operator=> experimental_result=100
molecule="CC(=O)OC1CC2C(C)(C)C(=O)C=C[C@]2(C)C2CCC3(C)C(c4ccoc4)C(=O)[C@H]4O[C@]43[C@]12C (stereo not given in full)" qualifier_operator== experimental_result=39.9
molecule=O=C(Nc1ccc(F)cc1)c1c(NC(=O)C(F)(F)F)sc2c1CCCCC2 qualifier_operator== experimental_result=11.8

###

- Test system: T-47D breast
Labels: active, inactive

compound=CC[C@@]1(O)C(=O)NCc2c1cc1n(c2=O)Cc2cc3c(N)cccc3nc2-1 label_class=inactive
compound="CCOC(=O)Oc1cc2c(c(OC)c1OC)-c1ccc(SC)c(=O)cc1C(NC(=O)C(F)(F)F)CC2 (centres undefined)" label_class=inactive
compound="COc1cc(/C=C2\\CC3C4CC=C5C[C@@H](OC(C)=O)CC[C@]5(C)C4CC[C@]3(C)C2=O)ccc1OCCCn1ccnc1 (some centres undefined)" label_class=inactive
compound=Cc1nc2ccc(Nc3nc(NCCN4CCOCC4)nc(Nc4ccc(F)cc4)n3)cc2n1Cc1ccccc1 label_class=inactive
compound=Nc1nnc2cc(Cl)ccc2n1 label_class=inactive
compound=N#Cc1c(-c2ccccc2)cc(-c2ccc(Nc3nc(Nc4ccc(Cl)cc4)nc(Nc4ccc(Cl)cc4)n3)cc2)nc1N label_class=inactive
compound="OCC1OC(n2ccc3c(NO)ncnc32)C(O)C1O (centres undefined)" label_class=active
compound=CC1=C[C@H]2c3c(c(O)c(O)c4oc5ccccc5c(=O)c34)[C@H](c3cc(O)c(O)c4oc5ccccc5c(=O)c34)[C@H]2C(C)(C)C1 label_class=inactive
compound="COC1CC2C=C(C)/C=C/C=C/C(=O)NC(c3ccccc3)C/C=C/CCC(O)CC(=O)C2=C1O (centres undefined)" label_class=active

###

- Test system: HCT-116 colon
Labels: active, inactive

compound=COc1cc2c3c(c1)c1cc(OC)c(OC)cc1c[n+]3CC2 label_class=inactive
compound=CC1(C)OC(=O)C=C([O-])O1.CC1(C)OC(=O)C=C([O-])O1.O=S(=O)([O-])c1ccc([O-])c2ncccc12.O=S(=O)([O-])c1ccc([O-])c2ncccc12.[Ti+4] label_class=inactive
compound=N#Cc1cnc2cc(OC[C@@H](O)CO)c(NC(=O)CC3CSSC3)cc2c1Nc1ccc(OCc2cccc(F)c2)c(Cl)c1 label_class=active
compound="O=S(=O)(NCC1CCC(CNc2ccc(Cl)cc2)CC1)c1ccc(-c2ccccc2)cc1 (configuration not stated)" label_class=inactive
compound=O=C(c1ccc2ncc(-c3nc(NC4CC4)ncc3F)n2c1)N1CCOCC1 label_class=inactive
compound=CC(C)=CC(=O)O[C@H]1C(=O)O[C@@H]2C[C@H]3[C@H](C)C(=O)C(O[C@@H]4O[C@H](CO)[C@@H](O)[C@H](O)[C@H]4O)=C[C@]3(C)[C@H]3[C@@H](O)[C@H](O)[C@]4(C(=O)O)OC[C@]32[C@@H]14 label_class=inactive
compound=COc1ccccc1NC(=O)n1nc(N)c2ccccc21 label_class=inactive

###

// TGI lookup, one value per entry
- Test system: SF-539 CNS
- Experiment summary: NCI tumour cell line growth inhibition, 48 h
Readout: TGI

compound="COC(=O)C1=C(C)NC2(O)C=CC(=O)C3C(=O)N(c4ccccc4)C(=O)C132 (stereo not drawn)" experimental_result="> 100 µM"
compound=CCOc1cc2c(NCCCN(CCO)CCO)ncnc2c(OCC)c1OCC experimental_result="> 100 µM"
compound=CC(=O)OCCOCNC(=S)N/N=C(\C)c1cnc2ccccc2n1 experimental_result="> 100 µM"
compound=CC1(C)OC(=O)C=C([O-])O1.CC1(C)OC(=O)C=C([O-])O1.O=S(=O)([O-])c1ccc([O-])c2ncccc12.O=S(=O)([O-])c1ccc([O-])c2ncccc12.[Ti+4] experimental_result="> 100 µM"
compound=Cc1c2c(cc3c1[nH]c1ccccc13)C=NCC2 experimental_result="11.9 µM"
compound=Nc1nnc2cc(Cl)ccc2n1 experimental_result="> 100 µM"
compound=N#Cc1c(-c2ccccc2)cc(-c2ccc(Nc3nc(Nc4ccc(Cl)cc4)nc(Nc4ccc(Cl)cc4)n3)cc2)nc1N experimental_result="3.24 µM"
compound=C/C(=N/NC(=S)Nc1ccccc1Cl)c1cccc(/C(C)=N\NC(=S)Nc2ccccc2Cl)n1 experimental_result="> 100 µM"
compound=C1CSCCCSCCSCCCSC1 experimental_result="> 100 µM"
compound=CN1CCCN(C)C1c1cc([N+](=O)[O-])ccc1O experimental_result="74.9 µM"
compound="CCC(=O)C(C)C1=Nc2nnc(CCCCCCCc3nnc4n3C(=O)C(C(C)C(=O)CC)=N4)n2C1=O (stereo not drawn)" experimental_result="> 100 µM"
compound=COc1ccc(C(N)=O)cc1N=NN(C)C experimental_result="> 100 µM"
compound=CCN(CC)CCCOC(=O)/C=C/c1c(C)[nH]c(=O)[nH]c1=O experimental_result="> 625 µM"

Origin of values: PubChem BioAssay (NCI)
